B1: library; a variant is named by its letters at N, in order (parent)
chain: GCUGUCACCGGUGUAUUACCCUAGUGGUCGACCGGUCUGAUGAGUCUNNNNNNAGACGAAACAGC

- Variants of: B1
- experimental details: FACS-Seq fitted mean relative fluorescence mCherry/BFP without ligand (log10 relative fluorescence); ligand: hypoxanthine (xanthine aptamer); higher = higher reporter protein expression
- condition set: HEK293T, ligand present: no
Where FACS-Seq fitted mean (log10) equals or exceeds 0.1, the correct label is Criterion met; where it does not, the label is Criterion not met.

Would you say GCUGUCACCGGUGUAUUACCCUAGUGGUCGACCGGUCUGAUGAGUCUCUGACCAGACGAAACAGC [CUGACC] shows FACS-Seq fitted mean (log10) at minimum 0.1?
Criterion met

Is FACS-Seq fitted mean (log10) for GCUGUCACCGGUGUAUUACCCUAGUGGUCGACCGGUCUGAUGAGUCUAGGCCGAGACGAAACAGC [AGGCCG] at or above 0.1?
Criterion met

I'd appreciate it if you could say whether GCUGUCACCGGUGUAUUACCCUAGUGGUCGACCGGUCUGAUGAGUCUUCACCAAGACGAAACAGC [UCACCA] has FACS-Seq fitted mean (log10) at least equal to 0.1.
Criterion met

Test whether the variant GCUGUCACCGGUGUAUUACCCUAGUGGUCGACCGGUCUGAUGAGUCUUCGAAAAGACGAAACAGC [UCGAAA] records FACS-Seq fitted mean (log10) of 0.1 or higher.
Criterion met

Is FACS-Seq fitted mean (log10) at least 0.1? Consider GCUGUCACCGGUGUAUUACCCUAGUGGUCGACCGGUCUGAUGAGUCUUCUAUGAGACGAAACAGC [UCUAUG]
Criterion met

Form field: FACS-Seq fitted mean (log10) at least 0.1? Entry: GCUGUCACCGGUGUAUUACCCUAGUGGUCGACCGGUCUGAUGAGUCUCGCUAGAGACGAAACAGC [CGCUAG]
Criterion met

Given GCUGUCACCGGUGUAUUACCCUAGUGGUCGACCGGUCUGAUGAGUCUACGUUGAGACGAAACAGC [ACGUUG] , state whether its FACS-Seq fitted mean (log10) is at least 0.1.
Criterion not met

Hi, just wondering whether GCUGUCACCGGUGUAUUACCCUAGUGGUCGACCGGUCUGAUGAGUCUGAGGUGAGACGAAACAGC [GAGGUG] shows FACS-Seq fitted mean (log10) of 0.1 or higher.
Criterion met

Would you say GCUGUCACCGGUGUAUUACCCUAGUGGUCGACCGGUCUGAUGAGUCUGAGUCAAGACGAAACAGC [GAGUCA] shows FACS-Seq fitted mean (log10) at minimum 0.1?
Criterion met

Confirm if FACS-Seq fitted mean (log10) reported for the variant GCUGUCACCGGUGUAUUACCCUAGUGGUCGACCGGUCUGAUGAGUCUAAGUAGAGACGAAACAGC [AAGUAG] is 0.1 or above.
Criterion not met

Evaluate GCUGUCACCGGUGUAUUACCCUAGUGGUCGACCGGUCUGAUGAGUCUACGAUGAGACGAAACAGC [ACGAUG] : FACS-Seq fitted mean (log10) at minimum 0.1?
Criterion met
